B1: NF2 (merlin) isoform 7, human, full length (507 aa, lacks exons 2-3 = isoform-1 residues 39-121; exon-16 C-terminus), P35240-4 (parent)
chain: MAGAIASRMSFSSLKRKQPKTFTVRIVTMDAEMEFNCEVKKQILDEKIYCPPEASVLLASYAVQAKYGDYDPSVHKRGFLAQEELLPKRVINLYQMTPEMWEERITAWYAEHRGRARDEAEMEYLKIAQDLEMYGVNYFAIRNKKGTELLLGVDALGLHIYDPENRLTPKISFPWNEIRNISYSDKEFTIKPLDKKIDVFKFNSSKLRVNKLILQLCIGNHDLFMRRRKADSLEVQQMKAQAREEKARKQMERQRLAREKQMREEAERTRDELERRLLQMKEEATMANEALMRSEETADLLAEKAQITEEEAKLLAQKAAEAEQEMQRIKATAIRTEEEKRLMEQKVLEAEVLALKMAEESERRAKEADQLKQDLQEAREAERRAKQKLLEIATKPTYPPMNPIPAPLPPDIPSFNLIGDSLSFDFKDTDMKRLSMEIEKEKVEYMEKSKHLQEQLNELKTEIEALKLKERETALDILHNENSDRGGSSKHNTIKKPQAQGRRPICI

# Variants of: B1
# test_protocol: reverse yeast two-hybrid deep mutational scan (rY2H-seq): NF2 isoform 7 mutant library as bait mated with wild-type prey strains; selection on medium lacking adenine for non-interacting pairs; NextSeq paired-end sequencing; enrichment vs …
# recorded_conditions: with EMILIN1 (elastin microfibril interfacer 1), Q9Y6C2; yeast diploids after mating (RBait_S3 x RPrey_S3), 30 °C, selection for reporter genes on NB agar; human ABL2 co-expressed as the kinase-dead K35M mutant …; HIGHER = WEAKER BINDING (the opposite of display enrichments): higher = stronger loss of interaction: reverse Y2H selects yeast in which bait and prey do NOT interact (growth without adenine), so a …; hits-only table; scale: rY2H score; numbering: uniprot, sequence starts at 1
Please use the following enrichment ranges when assigning a class: low interval (below 2), middle interval (2 to below 3), high interval (3 or more)

| mutation_annotation | group_label |
| --- | --- |
| D430K | high interval |
| D30L | high interval |
| R270L | low interval |
| Q376L | middle interval |
| E339A | middle interval |

Tag the class for "Q261L"
high interval

Tag the class for "N180T"
low interval

Tag the class for "D162L"
high interval

Numbers sourced from paper PMC10244618.
